Target: KCNT1 (KNa1.1, Slack) (Homo sapiens, UniProt Q5JUK3)
Sequence (Q5JUK3 1-1230): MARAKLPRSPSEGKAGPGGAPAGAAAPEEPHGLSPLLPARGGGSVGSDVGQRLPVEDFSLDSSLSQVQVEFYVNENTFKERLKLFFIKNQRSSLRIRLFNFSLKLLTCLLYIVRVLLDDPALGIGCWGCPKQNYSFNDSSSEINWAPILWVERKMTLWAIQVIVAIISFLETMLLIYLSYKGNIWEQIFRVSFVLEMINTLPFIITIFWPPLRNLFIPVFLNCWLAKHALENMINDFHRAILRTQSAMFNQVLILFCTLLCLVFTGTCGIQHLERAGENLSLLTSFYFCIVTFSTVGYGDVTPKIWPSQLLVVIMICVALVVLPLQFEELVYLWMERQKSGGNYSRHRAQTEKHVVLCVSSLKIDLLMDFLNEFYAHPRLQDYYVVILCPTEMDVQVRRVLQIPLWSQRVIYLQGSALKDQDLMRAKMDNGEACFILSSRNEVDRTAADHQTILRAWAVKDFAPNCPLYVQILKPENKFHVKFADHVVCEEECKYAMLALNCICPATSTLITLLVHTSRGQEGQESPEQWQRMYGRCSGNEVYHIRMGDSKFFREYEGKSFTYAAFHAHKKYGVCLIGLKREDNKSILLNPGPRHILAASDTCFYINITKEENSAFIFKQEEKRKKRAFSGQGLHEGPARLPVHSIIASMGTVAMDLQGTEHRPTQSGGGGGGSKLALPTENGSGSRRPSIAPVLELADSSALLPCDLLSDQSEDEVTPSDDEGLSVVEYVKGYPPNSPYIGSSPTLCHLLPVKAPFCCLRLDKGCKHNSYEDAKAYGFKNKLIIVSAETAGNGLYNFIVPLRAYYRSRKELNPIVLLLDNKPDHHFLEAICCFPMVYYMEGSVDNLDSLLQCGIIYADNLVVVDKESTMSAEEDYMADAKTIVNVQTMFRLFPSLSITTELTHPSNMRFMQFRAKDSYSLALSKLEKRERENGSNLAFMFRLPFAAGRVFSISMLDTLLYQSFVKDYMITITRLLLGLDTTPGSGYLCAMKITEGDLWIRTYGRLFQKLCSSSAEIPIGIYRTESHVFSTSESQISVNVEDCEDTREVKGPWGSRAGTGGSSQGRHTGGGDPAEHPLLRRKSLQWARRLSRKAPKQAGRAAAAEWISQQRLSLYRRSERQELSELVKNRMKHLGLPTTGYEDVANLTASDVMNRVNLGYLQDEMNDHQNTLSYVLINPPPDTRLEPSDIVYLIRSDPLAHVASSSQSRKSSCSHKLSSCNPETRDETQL
Assay: KCNT1 patch clamp assay (SyncroPatch 384PE automated patch clamp)
Conditions: tetracycline inducible HEK-TREX cell line; perforated patch; step from −80 mV to 0 mV; room temperature; read-out: KCNT1-WT IC50
Description: KCNT1—Patch Clamp Assay Inhibition of KCNT1 (KNa1.1, Slack) was evaluated using a tetracycline inducible cell line (HEK-TREX). Currents were recorded using the SyncroPatch 384PE automated, patch clamp system. […] Current were recorded in perforated patch mode (10 μM escin) from a population of cells. […] Currents were recorded at room temperature. […] The average mean current from 3 sweeps was calculated and the % inhibition of each compound was calculated. […]
Quick reference: IC50 of the listed items.

Would you please look over these solved cases?
compound	IC50
Cn1nc(C(F)(F)F)cc1C(=O)NC1(c2nc(-c3cccc(F)c3)no2)CCOC1 (stereo not drawn) [Compound 149]	≤ 1000 nM
CC[C@H](NC(=O)c1cc(C(F)(F)F)nn1C)c1nc(-c2ccnc(C(F)(F)F)c2)no1	≤ 1000 nM

Turning now to a further compound:
Looking up Cc1cccc(-c2noc(C(C)NC(=O)c3cc(C(C)C)nn3C)n2)c1 (stereo not drawn) , I see its IC50 listed as ≤ 1000 nM
